Target: human mPGES-1 (Homo sapiens, UniProt O14684)
Sequence (O14684 1-152): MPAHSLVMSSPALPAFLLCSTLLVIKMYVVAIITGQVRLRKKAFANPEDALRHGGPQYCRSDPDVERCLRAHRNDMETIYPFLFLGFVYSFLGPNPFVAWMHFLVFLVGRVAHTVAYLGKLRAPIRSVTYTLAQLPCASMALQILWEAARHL
endpoint: IC50

[[record]]
compound = "CO[C@@]1(NC(=O)C2SC(=C(C(N)=O)C(=O)O)S2)C(=O)N2C(C(=O)O)=C(CSc3nnnn3C)CS[C@@H]21 (stereo partly shown) [cefotetan]"
endpoint = "IC50"
result = "13.5 µM"


Ref: patent US20220031709A1
